Please provide measured OD for the entries that follow.
Tested System: T1, Full length recombinant HBcAg (rHBcAg) encompassing residues 1-183 (hepatitis B virus, UniProt P03146 1-183)
T1 construct: range 1-183; also called hepatitis B virus core antigen
T1 sequence (P03146 whole entry, the tested form may be a part): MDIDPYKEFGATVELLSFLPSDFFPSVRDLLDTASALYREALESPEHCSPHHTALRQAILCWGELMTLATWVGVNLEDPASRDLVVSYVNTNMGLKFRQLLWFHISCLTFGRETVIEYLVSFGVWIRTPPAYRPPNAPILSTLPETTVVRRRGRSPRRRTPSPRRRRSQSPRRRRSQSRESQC
Assay Overview: EIA, peptide coated 6.25 ug/ml, HBcAg 10 ug/ml
Answers are plain numbers, in OD.

Example entries and their recorded answers appear below.
{"Binder": "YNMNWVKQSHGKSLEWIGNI (also called Peptide # 27) [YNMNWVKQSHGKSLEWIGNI (SEQ. ID. No. 30)]", "OD (OD)": 0.175}
{"Binder": "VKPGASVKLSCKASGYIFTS (also called Peptide # 2; Pept. #2) [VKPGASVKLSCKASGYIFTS (SEQ. ID. No. 5)]", "OD (OD)": 0.597}
{"Binder": "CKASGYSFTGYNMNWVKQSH (also called Peptide # 26) [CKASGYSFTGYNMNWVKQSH (SEQ. ID. No. 29)]", "OD (OD)": 0.156}
{"Binder": "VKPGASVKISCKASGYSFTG (also called Peptide # 25) [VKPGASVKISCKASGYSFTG (SEQ. ID. No. 28)]", "OD (OD)": 0.298}
{"Binder": "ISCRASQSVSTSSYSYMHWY [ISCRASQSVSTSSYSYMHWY (SEQ. ID. No. 17)]", "OD (OD)": 0.63}

Please look at the following binder next.
Documented OD of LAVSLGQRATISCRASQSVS [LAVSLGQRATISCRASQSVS (SEQ. ID. No. 16)] : 0.388
